Target: Sodium channel protein type 9 subunit alpha (Homo sapiens)
Sequence (Q15858 whole entry): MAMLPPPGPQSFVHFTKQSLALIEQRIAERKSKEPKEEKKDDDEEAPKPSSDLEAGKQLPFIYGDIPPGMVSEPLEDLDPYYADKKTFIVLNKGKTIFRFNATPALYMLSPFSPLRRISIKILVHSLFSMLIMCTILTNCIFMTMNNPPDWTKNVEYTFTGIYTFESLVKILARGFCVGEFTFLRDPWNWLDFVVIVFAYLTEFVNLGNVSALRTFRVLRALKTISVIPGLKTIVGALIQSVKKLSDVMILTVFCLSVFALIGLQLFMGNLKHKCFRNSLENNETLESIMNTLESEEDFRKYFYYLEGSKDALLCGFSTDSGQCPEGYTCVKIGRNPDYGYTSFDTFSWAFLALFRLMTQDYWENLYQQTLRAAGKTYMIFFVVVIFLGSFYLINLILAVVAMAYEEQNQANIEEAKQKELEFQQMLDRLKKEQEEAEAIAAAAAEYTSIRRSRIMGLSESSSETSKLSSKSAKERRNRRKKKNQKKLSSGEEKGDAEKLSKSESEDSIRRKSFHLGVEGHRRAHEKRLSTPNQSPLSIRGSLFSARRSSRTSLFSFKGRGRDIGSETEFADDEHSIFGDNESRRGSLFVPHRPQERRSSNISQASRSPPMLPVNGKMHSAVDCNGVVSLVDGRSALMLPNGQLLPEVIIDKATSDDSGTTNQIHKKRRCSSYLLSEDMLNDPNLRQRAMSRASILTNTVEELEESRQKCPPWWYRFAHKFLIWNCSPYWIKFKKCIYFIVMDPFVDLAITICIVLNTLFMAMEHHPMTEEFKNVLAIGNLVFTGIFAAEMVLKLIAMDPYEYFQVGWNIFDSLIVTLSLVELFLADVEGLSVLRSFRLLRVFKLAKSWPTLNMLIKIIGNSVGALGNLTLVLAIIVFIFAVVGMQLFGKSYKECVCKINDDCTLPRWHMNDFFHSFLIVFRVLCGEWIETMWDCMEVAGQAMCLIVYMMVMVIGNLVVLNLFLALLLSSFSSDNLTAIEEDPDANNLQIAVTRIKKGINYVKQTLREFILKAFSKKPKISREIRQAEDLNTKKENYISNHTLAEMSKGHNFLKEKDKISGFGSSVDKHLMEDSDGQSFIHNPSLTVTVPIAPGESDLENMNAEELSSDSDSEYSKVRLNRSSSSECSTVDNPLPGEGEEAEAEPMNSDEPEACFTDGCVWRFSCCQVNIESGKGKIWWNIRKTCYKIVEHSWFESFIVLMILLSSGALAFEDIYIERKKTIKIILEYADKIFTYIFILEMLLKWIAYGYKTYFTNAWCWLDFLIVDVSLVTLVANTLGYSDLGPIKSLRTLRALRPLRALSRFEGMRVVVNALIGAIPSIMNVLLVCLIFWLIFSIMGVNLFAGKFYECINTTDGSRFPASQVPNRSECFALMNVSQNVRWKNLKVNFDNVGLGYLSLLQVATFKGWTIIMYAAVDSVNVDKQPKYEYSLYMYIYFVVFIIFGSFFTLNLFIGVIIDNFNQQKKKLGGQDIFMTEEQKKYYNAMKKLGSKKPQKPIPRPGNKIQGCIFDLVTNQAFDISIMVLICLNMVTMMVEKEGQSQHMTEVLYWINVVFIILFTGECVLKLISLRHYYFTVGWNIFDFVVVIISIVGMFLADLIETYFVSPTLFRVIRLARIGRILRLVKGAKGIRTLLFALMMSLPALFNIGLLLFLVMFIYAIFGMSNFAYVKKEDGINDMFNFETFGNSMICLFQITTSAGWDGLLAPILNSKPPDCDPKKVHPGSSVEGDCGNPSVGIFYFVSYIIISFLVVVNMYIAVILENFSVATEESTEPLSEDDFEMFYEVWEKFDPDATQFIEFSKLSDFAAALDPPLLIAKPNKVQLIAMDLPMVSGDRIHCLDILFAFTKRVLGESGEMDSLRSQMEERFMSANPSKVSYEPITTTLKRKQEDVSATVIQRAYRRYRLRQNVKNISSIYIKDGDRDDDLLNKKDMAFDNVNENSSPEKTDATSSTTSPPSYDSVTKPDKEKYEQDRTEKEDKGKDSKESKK
Assay: cell-based
quantity_kind: IC50 (nM)

[
  {
    "molecule_smiles": "NCc1cc(-c2cc(Cl)ccc2Oc2cc(F)c(S(=O)(=O)Nc3ncns3)cc2Cl)ccn1",
    "quantity_kind": "IC50",
    "measured_value": 4.9
  },
  {
    "molecule_smiles": "Cc1nc(-c2cccc(Oc3ccc(S(=O)(=O)Nc4ccc(F)cn4)cc3C#N)c2)no1",
    "quantity_kind": "IC50",
    "measured_value": 3000
  },
  {
    "molecule_smiles": "N#Cc1cc(S(=O)(=O)Nc2nccs2)ccc1Oc1cc(C2CC2)nn1-c1ccccn1",
    "quantity_kind": "IC50",
    "measured_value": 10000
  },
  {
    "molecule_smiles": "COCc1cnn(-c2ccc(Oc3ccc(S(=O)(=O)Nc4nccs4)cc3C#N)cc2)c1",
    "quantity_kind": "IC50",
    "measured_value": 1000
  },
  {
    "molecule_smiles": "CCn1nc(C(F)(F)F)cc1-c1ccc(Oc2ccc(S(=O)(=O)Nc3ccc(C#N)cn3)cc2C#N)cc1",
    "quantity_kind": "IC50",
    "measured_value": 10000
  },
  {
    "molecule_smiles": "CCc1nsc(NS(=O)(=O)c2ccc(Oc3ccccc3-c3ccccc3)c(C#N)c2)n1",
    "quantity_kind": "IC50",
    "measured_value": 10000
  },
  {
    "molecule_smiles": "N#Cc1cc(S(=O)(=O)Nc2ncns2)ccc1Oc1ccc(Cl)cc1-c1ccnn1C1CC1",
    "quantity_kind": "IC50",
    "measured_value": 17
  },
  {
    "molecule_smiles": "CCn1nc(C(F)(F)F)cc1-c1ccc(Oc2ccc(S(=O)(=O)Nc3ncc(F)s3)cc2F)cc1",
    "quantity_kind": "IC50",
    "measured_value": 820
  },
  {
    "molecule_smiles": "N#Cc1cc(S(=O)(=O)Nc2cscn2)ccc1Oc1ccc(F)cc1-c1cnn(CC(F)(F)F)c1",
    "quantity_kind": "IC50",
    "measured_value": 1000
  }
]
